- assay.protocol: Solubility at pH 7.4
- Format: physicochemical
- conditions: buffer
solubility for assorted compounds
property: solubility

| compound | property | obs.value |
| --- | --- | --- |
| COc1ccc(C(=O)NCc2cccc(C(=O)Nc3ccc4c(c3)CN(C)CC4)c2)cc1OC | solubility | > 0.085 mg/mL |
| COc1ccc(C(=O)NCc2cccc(C(=O)Nc3ccc(CO)cc3)c2)cc1OC | solubility | 0.048 mg/mL |
| COc1ccc(C(=O)NCc2cccc(C(=O)NCCc3ccncc3)c2)cc1OC | solubility | 0.063 mg/mL |
| COc1ccc(C(=O)NCc2cccc(C(=O)Nc3ccc(CN(C)C)cc3)c2)cc1Cl | solubility | > 0.096 mg/mL |
| COc1ccc(C(=O)NCc2cccc(C(=O)Nc3ccc4c(c3)CNCC4)c2)cc1OC | solubility | 0.049 mg/mL |
| COc1ccc(C(=O)NCc2cccc(C(=O)NCCC3CCCNC3)c2)cc1OC (stereo not given) | solubility | 0.016 mg/mL |
| COc1ccc(C(=O)NCc2cccc(C(=O)NCCC3CCNCC3)c2)cc1OC | solubility | 0.067 mg/mL |
| COc1ccc(C(=O)NCc2cccc(C(=O)Nc3ccc(CN(C)C)cc3)c2)cc1C | solubility | > 0.088 mg/mL |
| COc1ccc(C(=O)NCc2cccc(C(=O)Nc3ccc(CN(C)C)cc3)c2)cc1OC | solubility | > 0.1 mg/mL |
| N#Cc1ccc(NC(=O)NCc2cccc(C(=O)Nc3ccc4c(c3)CNCC4)c2)cc1 | solubility | > 0.1 mg/mL |
